Tested on: UACC-257 melanoma
Experiment: NCI tumour cell line growth inhibition, 48 h
measured-attribute: TGI

1) COc1ccc2c(c1)[n+]([O-])c(/C(C)=N/NC(=O)c1ccccc1O)c(C)[n+]2[O-] ... > 100 µM
2) CCCCCCCCCCCCSC(=S)c1c(C)[nH]n(CCCCCCCCCCCC)c1=O ... > 100 µM
3) Cc1cc2c(cc1Cl)SC(NNC1=NCCN1)=NS2(=O)=O ... > 10 µM
4) CCNCCNc1cc(-c2ccc(C(F)(F)F)cc2)c(C#N)c2nc3cc(Cl)c(Cl)cc3n12 ... 3.39 µM
5) COC(=O)c1ccc2c(c1)sc1nc(-c3ccc(OC)cc3)cn12 ... > 100 µM
6) N=C(N)c1ccc(N=Nc2c(O)ccc3cc4c(N=Nc5ccc(C(=N)N)cc5)c(O)ccc4cc23)cc1 ... > 100 µM
7) O=CN1CCC23CC(O)CCC2C1Cc1cc(Oc2nnnn2-c2ccccc2)cc(O)c13 (configuration not stated) ... > 100 µM
8) O=C(O)c1ccc([C@@H]2C(=O)N(O)[C@@H]3C=CC[C@@H]32)cc1 ... > 100 µM
9) COP(=O)(OC)[C@H](O)[C@H]1C[C@@H]1c1ccccc1 ... > 100 µM
10) COC(=O)Cn1c(=O)oc2nc(-c3ccccc3)cc(C(F)(F)F)c21 ... > 100 µM
11) CCOC(=O)CN(c1ccccc1)c1nc(=[N+](C)C)ss1 ... 96 µM
12) CN(C)Cc1c(C(=O)NCCOc2ccc(C(=O)NO)cc2)oc2ccccc12 ... 0.592 µM
13) Cc1c2c(nn1-c1ccc(S(=O)(=O)NC(=S)NC(=O)c3ccccc3)cc1)-c1ccccc1CC2 ... 47.4 µM
14) CC(C)=NNC(=S)NC12CC3CC(CC(C3)C1)C2 ... > 100 µM
15) CC(C)Cc1ccc(C(C)C(=O)NCc2ccc(Cn3c(=O)sn(CCCI)c3=O)cc2)cc1 (configuration not stated) ... 2.7 µM
16) O=S(=O)(O)c1ccc2c(N=Nc3ccccc3)c(O)ccc2c1 ... > 100 µM
17) COc1ccc(N=Cc2ccc(N(CCC#N)S(=O)(=O)c3ccccc3)cc2C)cc1 ... > 100 µM
18) CCN(CCO)CCNc1ccc(C)c2sc3ccccc3c(=O)c12 ... 6.16 µM
19) C#CCOCn1cc(C)c(=O)[nH]c1=O ... > 100 µM
20) Cc1ccccc1C(C(=O)NC1CCCCC1)N(C(=O)CNc1ccc(C#N)cc1)c1cccc(F)c1 (configuration not stated) ... > 100 µM
21) CC(C)OP(=O)(OC(C)C)C(=NCCN=C(NNc1ccccc1[N+](=O)[O-])P(=O)(OC(C)C)OC(C)C)NNc1ccccc1[N+](=O)[O-] ... 84.6 µM
22) N#CCc1nnc(N)o1 ... > 100 µM
23) Cc1ccc(C(=O)Nc2ncn(C3CC(O)C(CO)O3)c(=O)n2)cc1 (configuration not stated) ... > 100 µM
24) O=C1NC(=NCCc2ccccn2)S/C1=C\c1ccc2ncccc2c1 ... > 25 µM
25) CN1NC(c2ccccc2)=C(C#N)C(=O)CC1c1ccc(F)cc1 (configuration not stated) ... > 100 µM
26) COc1cc(C2OC[C@@H]3C(=O)OC[C@H]23)cc(O)c1OC (some centres not stated) ... > 100 µM
27) Cc1ccccc1C(C(=O)NC1CCCCC1)N(C(=O)CNc1ncccc1F)c1cccc(F)c1 (configuration not stated) ... > 100 µM
28) O=C1/C(=C/c2ccc(O)c(O)c2)CC/C1=C\c1ccc(O)c(O)c1 ... > 100 µM
29) CC(C)C(=O)c1c(C(F)(F)F)n([O-])c2ccccc2[n+]1=O ... 7.8 µM
30) COC(=O)C(c1ccc(OC)cc1)N1C(=O)[C@@H](NC(=O)c2ccccc2)[C@H]1[C@@H](C)O (some centres not stated) ... > 100 µM
31) Cc1cc2c(cc1Cl)SC(c1ccccc1O)NS2(=O)=O (configuration not stated) ... > 100 µM
32) Cc1ccc2c3c1[C@@H]1O[C@@H]1c1cccc(c1-3)[C@@H]1O[C@H]21 ... 33 µM
33) COC(=O)/N=[N+](\[O-])C(c1ccccc1)c1ccccc1 ... > 100 µM
34) COc1ccc2c(c1)C(c1cc(OC)c3c(c1)OCO3)C1=C(COC1=O)N2 (configuration not stated) ... > 100 µM
35) NC(CCCCNCc1ccccc1)C(=O)O (configuration not stated) ... > 100 µM
36) CN(C)C(=NC#N)N(Cc1ccccc1)Cc1ccccc1 ... > 100 µM
37) CCNc1nnc(-c2ccccc2Nc2ccccc2-c2nnc(NCC)s2)s1 ... 90.3 µM
38) Cn1c(=O)c(Oc2ccc(F)cc2F)cc2cnc(NC3CCOCC3)nc21 ... > 25 µM
39) Cc1ccsc1C(=S)Nc1ccc(Cl)c(/C=N/OC(C)C)c1 ... > 100 µM
40) CC(C(=O)n1ccnc1)N1c2ccccc2Sc2ccccc21 (configuration not stated) ... > 100 µM
41) O=C(Cc1nc2ccc([N+](=O)[O-])cc2[nH]c1=O)C(=O)Nc1ccccc1[N+](=O)[O-] ... > 100 µM
42) O=C1C(c2ccccc2)=C(c2ccccc2)C(c2ccc(Sc3ccc(C4=C(c5ccccc5)C(=O)C(c5ccccc5)=C4c4ccccc4)cc3)cc2)=C1c1ccccc1 ... > 100 µM

---

System: SW-620 colon
Assay: NCI tumour cell line growth inhibition, 48 h
Residues, ends and D or L forms follow the SMILES beside them. *: point of attachment. Cbz = O=C(OCc1ccccc1)*
measured-attribute: TGI

1) O=C(O)C12CCC(CC1=O)C2 (centres undefined) ... > 100 µM
2) CC(C)C[C@@H](C=O)NC(=O)[C@H](CC(C)C)NC(=O)[C@H](CC(C)C)NC(=O)OCc1ccccc1 (Cbz-Leu-Leu-Leu-aldehyde) ... 2.07 µM
3) CC(C)C(Sc1nc(-c2ccccc2)c(-c2ccccc2)[nH]1)c1n[nH]c(=S)n1-c1ccccc1 (centres undefined) ... > 100 µM
4) Cc1cccc(Cl)c1NC(=O)c1cnc(Nc2cc(N3CCOCC3)cc(S(C)(=O)=O)c2)s1 ... > 10 µM
5) CN1NC(c2ccccc2)=C(C#N)C(=O)CC1c1ccc(F)cc1 (centres undefined) ... > 100 µM
6) C/C=C\C(CC(=O)OC)CC(=O)N(CCC1CN(S(=O)(=O)C(F)(F)F)c2ccccc21)Cc1ccc(OC)cc1OC (centres undefined) ... > 100 µM
7) CC(=O)OCC1OC(n2ncc(=O)[nH]c2=O)C(OC(C)=O)C1OC(C)=O (centres undefined) ... > 100 µM
8) N#Cc1c(N/N=C\c2ccc(Cl)cc2)nc(N)nc1N1CCOCC1 ... > 100 µM
9) O=CN1CCC23CC(O)CCC2C1Cc1cc(Oc2nnnn2-c2ccccc2)cc(O)c13 (centres undefined) ... > 100 µM

---

Test system: SNB-75 CNS
Test: NCI tumour cell line growth inhibition, 48 h
Items are presented alongside their recorded TGI.
measured-attribute: TGI

1. Cc1ccc(C(=O)Nc2ncn(C3CC(O)C(CO)O3)c(=O)n2)cc1 (stereo not given) ... > 100 µM
2. O=C(CN=C(CN(c1ccccc1)c1ccccc1)Oc1ccc(Cl)cc1Cl)n1ccnc1 ... > 100 µM
3. CN(C)Cc1c(C(=O)NCCOc2ccc(C(=O)NO)cc2)oc2ccccc12 ... > 40.7 µM
4. O=S(=O)(c1cc(Cl)ccc1Cl)N1CCN(c2cccc(Cl)c2)CC1 ... > 100 µM
5. O=C1c2c(Cl)c(Cl)c(Cl)c(Cl)c2C(=O)C2(Cl)CC=CCC12Cl (stereo not given) ... 3.34 µM
6. COC(=O)C1[C@H](c2ccc3c(c2)OCO3)OC(=O)[C@]1(C(=O)OC)C(=O)c1ccc(OC)c(OC)c1 (stereo not given in full) ... > 100 µM
7. Cc1sc2c(c1C)C(c1ccc(Cl)cc1)=N[C@@H](CC(=O)NCCCN1CCN(C)CC1)c1nnc(C)n1-2 ... 0.16 µM
8. O=C(O)CN(c1ccc(F)cc1)S(=O)(=O)c1ccccc1 ... > 100 µM
9. COC(=O)c1oc2c(C(=O)/C=C/c3ccc(OC)cc3)c(OCCN3CCOCC3)ccc2c1C ... 6.77 µM
10. COc1ccc(N=Cc2ccc(N(CCC#N)S(=O)(=O)c3ccccc3)cc2C)cc1 ... > 100 µM
11. CCOC(=O)C(NC(=O)CC)(Nc1ccc(F)cc1F)C(F)(F)F (stereo not given) ... > 100 µM
12. Cc1ccsc1-c1ccc2c(c1)COC2(CCCN(C)C)c1ccc(F)cc1 (stereo not given) ... 6.82 µM
13. CC(=O)OCC1OC(n2ncc(=O)[nH]c2=O)C(OC(C)=O)C1OC(C)=O (stereo not given) ... > 100 µM
14. O=c1[nH]c2cc([N+](=O)[O-])c(N/N=C/c3ccc(Cl)cc3Cl)c([N+](=O)[O-])c2[nH]1 ... > 100 µM
15. COc1ccc2c(c1)C(c1cc(OC)c3c(c1)OCO3)C1=C(COC1=O)N2 (stereo not given) ... 37.6 µM
16. CCOc1cccc(-c2cc(=O)c3cc4c(cc3[nH]2)OCO4)c1 ... 36.1 µM
17. CC(C(=O)n1ccnc1)N1c2ccccc2Sc2ccccc21 (stereo not given) ... > 100 µM
18. Cc1ccc(C(=O)Oc2ccc(/C=C3\CCC/C(=C\c4ccc(OC(=O)c5ccc(C)cc5)cc4)C3=O)cc2)cc1 ... > 100 µM
19. COC(=O)[C@@H](C)C[C@H](Cc1ccccc1)NC(=O)c1csc([C@@H](C[C@H](C(C)C)N(C)C(=O)[C@@H](NC(=O)[C@H]2CCCN2C)C2CC2)OC(C)=O)n1 ... > 25 µM
20. CN(C)CCOc1ccccc1NC1=C(Cl)C(=O)C(Nc2ccccc2OCCN(C)C)=C(Cl)C1=O ... > 82.1 µM
